Protocol: Cytotoxicity, CellTiter-Glo cell viability assay in HFF cells
Assay Setup: human, human foreskin fibroblast (HFF) cell monolayers, CC50, AdV8 line of Table 2; unit inferred
Measure Name: CC50

> print(dat)
                                   compound  recorded.measurement
1  Nc1nc2c(ncn2/C=C2/CC2(CO)CO)c(=O)[nH]1 [FCV]              > 150 µM

----------
Protocol: Cytotoxicity, CellTiter-Glo cell viability assay in HFF cells
Assay Setup: human
Measure Name: CC50

> print(dat)
                 sample.smiles  recorded.measurement
1  Nc1ncnc2c1ncn2CCOCP(=O)(O)O              > 100 µM

----------
Test system: Adenovirus 5 (AdV5)
Protocol: Cytopathic effects (CPE) reduction assay, AdV5 in HFF cells, 384-well
Assay type: cell-based, human adenovirus
Assay Setup: AdV5, HFF cells, 384 well CPE; average and SD from five independent experiments; read-out: EC50
Measure Name: EC50

> print(dat)
                              sample.smiles  recorded.measurement
1  OC[C@H]1O[C@@H](n2c(Br)nc3cc(Cl)c(Cl)cc32)[C@H](O)[C@@H]1O                 70 µM
2  Cc1cn([C@H]2C[C@H](O)[C@]3(CO)C[C@H]23)c(=O)[nH]c1=O                 57 µM
3  O=c1[nH]c(=O)n([C@@H]2CO[C@H](CO)O2)cc1/C=C/Br              > 100 µM
4  O=c1[nH]c(=O)n([C@@H]2O[C@H](CO)[C@@H](O)[C@@H]2F)cc1I              > 100 µM

----------
System: Adenovirus 5 (AdV5)
Protocol: Cytopathic effects (CPE) reduction assay, AdV5 in HFF cells, 384-well
Assay type: cell-based, human adenovirus
Assay Setup: Human mastadenovirus C, HFF, read-out: IC50 value against AdV5
Measure Name: IC50 (µM)

> print(dat)
                  sample.smiles  unit.abbrev  recorded.measurement
1  Nc1nc(O)c2ncn(COC(CO)CO)c2n1           µM                    66

----------
Test system: human foreskin fibroblast (HFF) cells
Protocol: Cytotoxicity, CellTiter-Glo cell viability assay in HFF cells
Property: CC50; scope: individual compounds
Measure Name: CC50

> print(dat)
                                   compound  recorded.measurement
1  O=c1[nH]c(=O)n([C@@H]2O[C@H](CO)[C@@H](O)[C@@H]2F)cc1I [FIAU]              > 100 µM
2  O=c1[nH]c(=O)n([C@@H]2CO[C@H](CO)O2)cc1/C=C/Br [L-BHDU]              > 100 µM

----------
System: adenovirus 7 (AdV7)
Protocol: CPE reduction assay, adenovirus 7
Format: cell-based, human adenovirus
Assay Setup: Human mastadenovirus B, unit not given in Table 2 (Table 1 in μM)
Measure Name: EC50 (µM)

> print(dat)
                            sample.smiles  recorded.measurement
1  Nc1nc2c(ncn2/C=C2/CC2(CO)CO)c(=O)[nH]1                  1.04

----------
System: adenovirus
Protocol: Dose-dependent inhibition of adenovirus infection (summary statement)
Type: cell-based
Assay Setup: unidentified adenovirus
pIC50: −log10 of the molar value.
Measure Name: pIC50

> print(dat)
                            sample.smiles  recorded.measurement
1  Nc1nc2c(ncn2/C=C2/CC2(CO)CO)c(=O)[nH]1                ≥ 5.30

Data origin: patent US20220168310A1
